system: α2-GABAA receptor; test: Ligand-binding assay, competitive with radiolabeled flumazenil, spinal cord membranes; conditions: Affinity for α2-GABAA receptor; 10^-7M test compound; rat spinal cord membranes; radiolabeled flumazenil 1 nM
readout type: % Inhibition 10^−7M (%)
Form entry: value (%) — number only.

Query: What % Inhibition 10^−7M value was documented for this molecule, Cc1ccc(-c2nc3ccc(C)cn3c2CNC(=O)c2cnccn2)cc1 [Example 89] ?
Response: 54.5

Query: What % Inhibition 10^−7M value was documented for this molecule, Cc1ccc(-c2nc3ccc(C)cn3c2CN(C)C(=O)c2ccc(N(C)C)cc2)cc1 [Example 22] ?
Response: 0.0

Query: What % Inhibition 10^−7M value was documented for this molecule, Cc1ccc(-c2nc3ccc(C)cn3c2CN(C)C(=O)C2CC2)cc1 [Example 24] ?
Response: 0.0

Query: What % Inhibition 10^−7M value was documented for this molecule, Cc1ccc(-c2nc3ccc(C)cn3c2CN(C)C(=O)c2ccc([N+](=O)[O-])cc2)cc1 [Example 31] ?
Response: 0.0

Query: What % Inhibition 10^−7M value was documented for this molecule, Cc1ccc(-c2nc3ccc(C)cn3c2CNC(=O)c2csc(C)n2)cc1 [Example 69] ?
Response: 74.1

Query: What % Inhibition 10^−7M value was documented for this molecule, Cc1ccc(-c2nc3ccc(C)cn3c2CNC(=O)c2ccncc2)cc1 [Example 7] ?
Response: 0.0

Query: What % Inhibition 10^−7M value was documented for this molecule, Cc1ccc(-c2nc3ccc(C)cn3c2CNC(=O)c2cn(C)cn2)cc1 [Example 74] ?
Response: 63.0

Query: What % Inhibition 10^−7M value was documented for this molecule, Cc1ccc(-c2nc3ccc(C)cn3c2CNC(=O)c2ccc3ccccc3n2)cc1 [Example 19] ?
Response: 0.0

----------
tested on: α2-GABAA receptor; test: Ligand-binding assay, competitive with radiolabeled flumazenil, spinal cord membranes; conditions: Affinity for α2-GABAA receptor; 10^-5M test compound; rat spinal cord membranes; radiolabeled flumazenil 1 nM
Response field label: string, one of class 1 (% Inhibition 10^−5M strictly below 50%) or class 0.

Query: Would you kindly verify if % Inhibition 10^−5M of `Cc1ccc(-c2nc3ccc(C)cn3c2CNC(=O)c2ccco2)cc1` is strictly less than 50%?
Response: class 0

Query: Would you kindly verify if % Inhibition 10^−5M of `Cc1ccc(-c2nc3ccc(C)cn3c2CN(C)C(=O)C2CC2)cc1` is strictly less than 50%?
Response: class 1

Query: Would you kindly verify if % Inhibition 10^−5M of `Cc1ccc(-c2nc3ccc(C)cn3c2CNC(=O)c2csnn2)cc1` is strictly less than 50%?
Response: class 0

Query: Would you kindly verify if % Inhibition 10^−5M of `Cc1ccc(-c2nc3ccc(C)cn3c2CN(C)C(=O)c2ncc(F)cc2F)cc1` is strictly less than 50%?
Response: class 0

Query: Would you kindly verify if % Inhibition 10^−5M of `Cc1ccc(-c2nc3ccc(C)cn3c2CNC(=O)c2ccncc2)cc1` is strictly less than 50%?
Response: class 0

Query: Would you kindly verify if % Inhibition 10^−5M of `Cc1ccc(-c2nc3ccc(C)cn3c2CNC(=O)c2ccccn2)cc1` is strictly less than 50%?
Response: class 0

Query: Would you kindly verify if % Inhibition 10^−5M of `Cc1ccc(-c2nc3ccc(C)cn3c2CNC(=O)c2cc(C)n(C)n2)cc1` is strictly less than 50%?
Response: class 0

Query: Would you kindly verify if % Inhibition 10^−5M of `COc1ccc2nc(C(=O)NCc3c(-c4ccc(C)cc4)nc4ccc(C)cn34)sc2c1` is strictly less than 50%?
Response: class 1

The reported numbers originate from patent US20080200473A1.
